Target: T1, biotinylated α-cobratoxin from Naja kaouthia (Naja kaouthia, biotin through amine coupling (NHS-PEG4-Biotin), sites not stated)
T1 chain: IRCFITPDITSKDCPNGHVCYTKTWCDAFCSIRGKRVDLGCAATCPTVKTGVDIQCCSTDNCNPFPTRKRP
Assay: BLI
Details: both partners purified
Please respond with reported Kd for every item in the list.
// return numeric value only (unit: nM, not printed)

Notebook: A12 Fab (Fab, V domains shown) VH: QVQLVQSGAEVKKPGSSVKVSCKASGGTFSSYAISWVRQAPGQGLEWMGGIIPIFGTANYAQKFQGRVTITADESTSTAYMELRSLRSDDTAVYYCARDNLGYCSGGSCYSDYYYYYMDVWGQGTLVTVSS VL: NFMLTQPHSVSESPGKTVTFSCTRSSGRIVSDYVHWYQQRPGSAPTTVIYEDNQRPSGVPDRFSGSIDSSSNSASLTISGLKTEDEADYYCQSYDSSNAYVVFGGGTKVTVL , Kd read as 4.2

The measured Kd associated with G09 Fab (Fab, V domains shown) VH: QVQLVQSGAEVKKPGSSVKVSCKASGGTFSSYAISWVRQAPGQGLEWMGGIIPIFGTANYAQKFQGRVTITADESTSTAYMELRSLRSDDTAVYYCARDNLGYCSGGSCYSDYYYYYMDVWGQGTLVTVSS VL: SYELTQPPSVSVAPGRTATITCEGDNIGQQIVHWYRQKSDQAPVVVVYDGSRRPSGIPERFSGSNSGNTATLTISRVEAGDEADYYCQVWDITSDHVVFGGGTQLTVL reads 4.2

// Kd value for A04 Fab (Fab, V domains shown) VH: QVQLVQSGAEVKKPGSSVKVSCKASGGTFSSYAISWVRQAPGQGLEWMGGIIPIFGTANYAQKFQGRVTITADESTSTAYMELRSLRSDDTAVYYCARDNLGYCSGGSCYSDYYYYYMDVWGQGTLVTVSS VL: SYELTQPPSMSVAPGQTARITCGGDYIGGESVHWYQQKPGRAPVAVVYDDTHRPSGIPERFSGANSGNTATLTISKVEAGDEADYYCQVWDVSSDHVVFGGGTKLTVL : 15.3

Reported Kd of E01 Fab (Fab, V domains shown) VH: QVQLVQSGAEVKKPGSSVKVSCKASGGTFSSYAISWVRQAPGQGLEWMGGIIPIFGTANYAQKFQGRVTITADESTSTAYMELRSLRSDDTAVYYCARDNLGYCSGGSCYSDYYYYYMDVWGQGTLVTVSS VL: NFMLTQPRSVSESPGKTVTISCTRSSGSIGSDYVHWYQQRPGSSPTTVIYEDNRRPSGVPDRFSGSIASSANSASLTISGLRPEDEADYYCQSYDSTTNHVVFGGGTKVTVL : 6.6

Documented Kd of B11 Fab (Fab, V domains shown) VH: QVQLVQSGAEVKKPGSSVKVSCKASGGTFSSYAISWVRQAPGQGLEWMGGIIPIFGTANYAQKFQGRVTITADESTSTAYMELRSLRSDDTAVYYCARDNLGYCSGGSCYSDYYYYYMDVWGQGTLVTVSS VL: SYELTQPPSVSVAPGQTATITCGGHNIGSNIVHWYHQKPGQAPELVISHNTNRPSGIPERFSGSNSGSTATLTISRVEAVDEADYYCQVWDSSSEHVVFGGGTKVTVL : 5.7

Recorded result, D11 Fab (Fab, V domains shown) VH: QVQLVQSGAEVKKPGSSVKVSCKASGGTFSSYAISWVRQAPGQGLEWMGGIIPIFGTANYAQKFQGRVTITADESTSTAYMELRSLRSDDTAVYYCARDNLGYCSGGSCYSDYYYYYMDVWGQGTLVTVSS VL: NFMLTQPRSVSESPGKTVTISCTRSSGSIGSDYVHWYQQRPGSSPTTVIYEDNQRPSGVPDRFSGSIDSSSNSASLTISGLKTEDEADYYCQSYDRSNHEVVFGGGTKLTVL , Kd: 1.8
